target: TYK2 (Homo sapiens); construct: endogenous in cells; test: Kinobeads assay, TYK2; details: mixed Molt4/Ramos lysate, read-out: Inhibition values (IC50) TYK2
value_kind: IC50

// query Field request: IC50 | item: Cn1cc(Nc2ncc(Cl)c(N[C@H](CO)c3cc(F)cc(-c4cnn(C)c4)c3)n2)cn1
// result 1 to 10 µM

// query Look up IC50: O=C(NCC(F)(F)F)C(Nc1nc(Nc2cnn(CCO)c2)ncc1Cl)c1ccccc1F (centres unmarked)
// result 1 to 10 µM

// query Consider the compound COC(=O)C(Nc1nc(Nc2cnn(CCO)c2)ncc1Cl)c1ccccc1 (centres unmarked) and give its measured IC50.
// result 1 to 10 µM

// query Name the reported IC50 value associated with the compound Cc1cnc(Nc2cnn(CC(F)F)c2)nc1NC(CO)c1c(F)cccc1F (centres unmarked)
// result 1 to 10 µM

// query Requested field: IC50. Item: CNC(=O)Cn1cc(Nc2ncc(F)c(N[C@H](CO)c3cc(F)cc(-c4cnn(C)c4)c3)n2)cn1
// result ≥ 10 µM

====

Please provide measured pIC50 for the entries that follow.
biological target: TYK2 (Homo sapiens, UniProt P29597); construct: endogenous in cells; assay: Kinobeads assay, TYK2; conditions: mixed Molt4/Ramos lysate, read-out: Inhibition values (IC50) TYK2
Sequence (P29597 whole entry): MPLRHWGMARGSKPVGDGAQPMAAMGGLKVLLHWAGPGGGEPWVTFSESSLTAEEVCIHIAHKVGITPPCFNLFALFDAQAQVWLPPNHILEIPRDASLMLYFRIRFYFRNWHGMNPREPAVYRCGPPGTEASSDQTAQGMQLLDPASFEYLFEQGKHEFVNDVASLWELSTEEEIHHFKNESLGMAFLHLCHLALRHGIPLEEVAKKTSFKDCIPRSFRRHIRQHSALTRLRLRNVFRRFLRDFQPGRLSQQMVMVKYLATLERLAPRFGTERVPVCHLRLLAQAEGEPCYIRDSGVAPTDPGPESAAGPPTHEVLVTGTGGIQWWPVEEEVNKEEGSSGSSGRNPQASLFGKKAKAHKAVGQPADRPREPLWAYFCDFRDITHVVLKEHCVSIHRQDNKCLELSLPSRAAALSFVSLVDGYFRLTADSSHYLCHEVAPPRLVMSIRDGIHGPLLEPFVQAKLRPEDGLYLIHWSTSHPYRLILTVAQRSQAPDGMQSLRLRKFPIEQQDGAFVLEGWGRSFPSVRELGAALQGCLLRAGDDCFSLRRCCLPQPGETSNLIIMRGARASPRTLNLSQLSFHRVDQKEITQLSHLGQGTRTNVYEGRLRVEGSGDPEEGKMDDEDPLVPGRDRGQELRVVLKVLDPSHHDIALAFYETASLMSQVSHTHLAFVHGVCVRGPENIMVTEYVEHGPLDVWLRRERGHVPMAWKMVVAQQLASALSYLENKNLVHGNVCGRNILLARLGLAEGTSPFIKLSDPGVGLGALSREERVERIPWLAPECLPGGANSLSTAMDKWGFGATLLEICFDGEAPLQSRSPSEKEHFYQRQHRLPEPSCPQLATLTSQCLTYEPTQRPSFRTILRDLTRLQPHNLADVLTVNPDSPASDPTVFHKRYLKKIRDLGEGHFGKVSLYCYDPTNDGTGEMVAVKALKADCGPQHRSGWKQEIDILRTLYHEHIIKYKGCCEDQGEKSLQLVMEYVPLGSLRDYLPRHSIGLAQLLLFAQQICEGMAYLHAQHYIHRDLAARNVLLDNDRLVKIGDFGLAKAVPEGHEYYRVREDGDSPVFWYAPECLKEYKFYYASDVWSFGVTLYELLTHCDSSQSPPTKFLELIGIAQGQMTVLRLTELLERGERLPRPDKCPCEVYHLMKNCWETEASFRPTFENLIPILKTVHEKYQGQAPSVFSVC
pIC50: −log10 of the molar value.

// query Give its pIC50 value. Item: Cn1cc(Nc2ncc(F)c(N[C@H](CO)c3ccccc3)n2)cn1 [Compound 3]
// result 5.00 to 6.00

// query Need pIC50, item Cn1cc(Nc2ncc(Cl)c(N[C@H](CO)c3cccc(-c4cnn(C)c4)c3)n2)cn1 [Compound 136]
// result ≤ 5.00

// query Can you look up the measured pIC50 of CN1CCC(n2cc(Nc3ncc(Cl)c(N[C@H](CO)c4ccccc4)n3)cn2)C1=O (stereo partly drawn) [Compound 135] for me?
// result 5.00 to 6.00

// query What value of pIC50 has been reported for the following compound? Cc1cnc(Nc2cnn(C)c2)nc1N[C@H](CO)c1cc(F)cc(F)c1 [Compound 164]
// result 5.00 to 6.00

// query // lookup pIC50 for Cn1cc(Nc2ncc(Cl)c(N[C@H](CO)c3cccnc3)n2)cn1 [Compound 91]
// result 6.00 to 7.00

// query Entry Cn1cc(Nc2ncc(Cl)c(N[C@H](C(=O)NC3CCCC3)c3ccccc3)n2)cn1 [Compound 59] has what pIC50?
// result ≤ 5.00

// query Quick check: pIC50 of CNC(=O)Cn1cc(Nc2ncc(Cl)c(N[C@H](CO)c3cccc(-c4cnn(C)c4)c3)n2)cn1 [Compound 154] ?
// result 6.00 to 7.00

// query Please look up its pIC50: O=C(Cn1cc(Nc2ncc(Cl)c(N[C@H](CO)c3ccccc3F)n2)cn1)N1CCOCC1 [Compound 103]
// result 6.00 to 7.00

// query For the compound shown here, Cn1cc(Nc2ncc(Cl)c(NC(CO)c3cc(F)ccc3F)n2)cn1 (stereo not drawn) [Compound 129] , give the reported pIC50.
// result 6.00 to 7.00

// query Form field: reported pIC50 of OC[C@@H](Nc1nc(Nc2cn[nH]c2)ncc1Cl)c1ccccc1 [Compound 75]
// result 5.00 to 6.00

// query Form field: reported pIC50 of O=C(O)C(Nc1nc(Nc2cnn(CCO)c2)ncc1Cl)c1ccccc1 (stereo not drawn) [Compound 17]
// result ≤ 5.00

// query Given the entry Cn1cc(Nc2ncc(Cl)c(NC(CO)c3ccc(F)cc3)n2)cn1 (stereo not drawn) [Compound 71] , report its measured pIC50.
// result 5.00 to 6.00

// query Any idea what pIC50 was measured for CNC(=O)Cn1cc(Nc2ncc(Cl)c(NC(CO)c3ccccc3F)n2)cn1 (stereo not drawn) [Compound 33] ?
// result 5.00 to 6.00

// query Any idea what its pIC50 is? The compound is NC(=O)Cn1cc(Nc2ncc(Cl)c(N[C@H](CO)c3ccccc3F)n2)cn1 [Compound 78]
// result 6.00 to 7.00

// query Any idea what pIC50 was measured for CNC(=O)Cn1cc(Nc2ncc(Cl)c(NC(CO)c3cc(F)ccc3F)n2)cn1 (stereo not drawn) [Compound 130] ?
// result 6.00 to 7.00

// query May I ask what pIC50 has been recorded for Cn1cc(Nc2ncc(Cl)c(NC(CO)c3ccccc3Cl)n2)cn1 (stereo not drawn) [Compound 117] ?
// result 5.00 to 6.00

// query Consider the compound Cc1cnc(Nc2cnn(C)c2)nc1N[C@H](CO)c1cccc(-c2cnn(C)c2)c1 [Compound 149] and give its measured pIC50.
// result ≤ 5.00

// query Look up pIC50: CC(C)n1cc(Nc2ncc(Cl)c(N[C@H](CO)c3cccnc3)n2)cn1 [Compound 107]
// result 5.00 to 6.00

// query For the compound NC(=O)Cn1cc(Nc2ncc(Cl)c(N[C@H](CO)c3cccc(F)c3)n2)cn1 [Compound 87] , what pIC50 is on record?
// result 6.00 to 7.00

// query Consider the compound shown here: COc1ccccc1[C@@H](CO)Nc1nc(Nc2cnn(C)c2)ncc1Cl [Compound 74] What is its recorded pIC50?
// result 5.00 to 6.00

// query So what's the measured pIC50 for this one? CNC(=O)Cn1cc(Nc2ncc(Cl)c(NC(CO)c3cccc(F)c3)n2)cn1 (stereo not drawn) [Compound 32]
// result 5.00 to 6.00

// query # query: pIC50 of entry OCCn1cc(Nc2ncc(Cl)c(N[C@H](CO)c3ccccc3F)n2)cn1 [Compound 77]
// result 6.00 to 7.00

// query I have this compound here, CNC(=O)Cn1cc(Nc2ncc(Cl)c(NC(CO)c3cc(F)cc(F)c3)n2)cn1 (stereo not drawn) [Compound 123] , and I need its recorded pIC50.
// result 5.00 to 6.00

// query // returns reported pIC50 for input CC(C)NC(=O)Cn1cc(Nc2ncc(Cl)c(N[C@H](CO)c3ccccc3F)n2)cn1 [Compound 115]
// result 6.00 to 7.00

// query # query: pIC50 of entry OCC[C@@H](Nc1nc(Nc2cnn(CCO)c2)ncc1Cl)c1ccccc1 [Compound 65]
// result 5.00 to 6.00

// query Form field: reported pIC50 of Cc1cnc(Nc2cnn(CC(=O)N(C)C)c2)nc1N[C@H](CO)c1ccccc1 [Compound 134]
// result 5.00 to 6.00

// query What value of measured pIC50 is listed for OCCn1ccc(Nc2ncc(Cl)c(NC(CO)c3c(F)cccc3F)n2)n1 (stereo not drawn) [Compound 45] ?
// result 5.00 to 6.00

====

target: JAK3 (Homo sapiens); construct: endogenous in cells; assay: Kinobeads assay, JAK3; details: mixed Molt4/Ramos lysate, read-out: Inhibition values (IC50) JAK3
Sequence (P52333 whole entry): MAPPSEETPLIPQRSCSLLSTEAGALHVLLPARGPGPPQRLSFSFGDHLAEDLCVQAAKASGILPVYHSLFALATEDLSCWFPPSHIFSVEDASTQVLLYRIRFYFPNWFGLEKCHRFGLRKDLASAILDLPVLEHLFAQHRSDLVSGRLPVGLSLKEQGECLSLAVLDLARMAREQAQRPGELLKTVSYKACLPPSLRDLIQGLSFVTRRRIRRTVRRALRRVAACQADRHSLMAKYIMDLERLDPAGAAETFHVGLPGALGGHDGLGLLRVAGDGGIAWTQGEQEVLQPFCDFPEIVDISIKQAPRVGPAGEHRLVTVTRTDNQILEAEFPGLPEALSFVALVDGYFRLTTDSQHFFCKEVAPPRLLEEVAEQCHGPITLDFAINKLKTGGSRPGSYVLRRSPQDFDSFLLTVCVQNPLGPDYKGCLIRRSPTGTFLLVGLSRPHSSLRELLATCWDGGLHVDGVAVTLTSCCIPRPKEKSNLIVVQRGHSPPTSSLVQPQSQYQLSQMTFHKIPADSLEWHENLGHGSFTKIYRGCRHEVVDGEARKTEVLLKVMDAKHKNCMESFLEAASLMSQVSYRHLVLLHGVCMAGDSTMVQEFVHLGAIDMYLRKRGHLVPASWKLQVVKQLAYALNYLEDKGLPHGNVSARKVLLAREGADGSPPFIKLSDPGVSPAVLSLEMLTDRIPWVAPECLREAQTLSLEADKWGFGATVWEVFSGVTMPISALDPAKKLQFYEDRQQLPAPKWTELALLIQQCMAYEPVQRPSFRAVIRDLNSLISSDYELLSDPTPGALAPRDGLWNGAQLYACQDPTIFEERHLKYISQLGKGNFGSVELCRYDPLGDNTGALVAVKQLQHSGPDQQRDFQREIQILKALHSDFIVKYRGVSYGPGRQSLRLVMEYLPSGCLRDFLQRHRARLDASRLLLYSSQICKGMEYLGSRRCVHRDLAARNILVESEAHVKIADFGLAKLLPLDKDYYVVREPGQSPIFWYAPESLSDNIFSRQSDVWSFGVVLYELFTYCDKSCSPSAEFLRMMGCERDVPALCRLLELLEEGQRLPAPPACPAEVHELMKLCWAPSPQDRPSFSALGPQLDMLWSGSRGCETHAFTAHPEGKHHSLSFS
value_kind: IC50

// query Look at this molecule and give its reported IC50. CNC(=O)Cn1cc(Nc2ncc(Cl)c(NC(CO)c3cc(F)ccc3F)n2)cn1 (centres unmarked) [Compound 130]
// result < 100 nM

// query If you can, please state the reported IC50 value of Cn1cc(Nc2ncc(Cl)c(N[C@H](CO)c3cc(F)cc(F)c3)n2)cn1 [Compound 142] .
// result < 100 nM

// query // returns reported IC50 for input Cn1cc(Nc2ncc(F)c(NC(CO)c3ccccc3)n2)cn1 (centres unmarked) [Compound 2]
// result 100 to 1000 nM

// query Value lookup for IC50; key = OCCn1cc(Nc2ncc(Cl)c(NC(CO)Cc3ccccc3)n2)cn1 (centres unmarked) [Compound 19]
// result < 100 nM

// query IC50 for O=C(NCC(F)(F)F)C(Nc1nc(Nc2cnn(CCO)c2)ncc1Cl)c1ccccc1F (centres unmarked) [Compound 128] ?
// result 100 to 1000 nM

// query Can you look up the measured IC50 of CCn1cc(Nc2ncc(Cl)c(N[C@H](CO)c3cccnc3)n2)cn1 [Compound 97] for me?
// result < 100 nM

// query Fill in: IC50 of Cn1cc(Nc2ncc(Cl)c(NC(CO)c3ccc(F)cc3)n2)cn1 (centres unmarked) [Compound 71] is ___
// result 100 to 1000 nM

// query Any idea what its IC50 is? The molecule is CNC(=O)Cn1cc(Nc2ncc(Cl)c(N[C@H](CO)c3ccccc3OC)n2)cn1 [Compound 98]
// result < 100 nM

// query Could you tell me which IC50 is on file for Cn1cc(Nc2ncc(Cl)c(NC(CO)c3ccccc3)n2)cn1 (centres unmarked) [Compound 1] ?
// result < 100 nM

// query Could you tell me which IC50 is on file for O=C(c1cc(Nc2ncc(Cl)c(N[C@H](CO)c3ccccc3)n2)c[nH]1)N1CCOCC1 [Compound 13] ?
// result < 100 nM

// query Consider the molecule OC[C@@H](Nc1nc(Nc2cn[nH]c2)ncc1Cl)c1cccc(F)c1 [Compound 88] and give its measured IC50.
// result < 100 nM
